test system: C. albicans; construct: DSM 1577; assay: microbe, parasite or virus in culture; design: Microbial growth in liquid dilution assay, OD600 relative to DMSO control; conditions: Candida albicans, read-out: C. albicans, IC50 (µM) estimate
attribute_measured: IC50

| substance_smiles | IC50 |
| --- | --- |
| O=C(CC1CCN(CCc2ccccc2)CC1)Nc1cccc(-n2cccn2)c1 | > 30 µM |

Query compound follows.
What does the record list as IC50 for "CCc1cccc(OCC(=O)Nc2ccc(S(=O)(=O)Nc3onc(C)c3C)cc2)c1" ?
> 30 µM

* * *

experiment: in vitro; conditions: human, hela cells, % viability
Threshold 90%: viability at 28.5 h, 10 µM strictly smaller gives Met, otherwise Not met.

These solved cases illustrate the format of a correct answer.
| compound | label |
| --- | --- |
| COc1cc(-c2nccnc2NCC2CCCCC2)cc(OC)c1OC | Not met |
| Cc1cc(C)nc(N2CCC(c3cc(CCOc4cccc(C(F)(F)F)c4)[nH]n3)C2)n1 (centres unmarked) | Met |
| Cc1ccc(-c2cc(C(=O)NCCCN3CCOCC3)c3cc(Cl)ccc3n2)o1 | Not met |

Now take the following compound into account.
Item "CCOC(=O)c1[nH]c2ccccc2c1NC(=O)CS(=O)(=O)c1ccc(C)cc1" : viability at 28.5 h, 10 µM beneath 90%, strictly?
Not met

* * *

experiment: in vitro; details: human, hela cells, % viability
attribute_measured: viability at 28.5 h, 10 µM (%)
Numbers only, in %.

Your task in this section: give viability at 28.5 h, 10 µM for each listed record.
1. O=C(O)c1cccc(NS(=O)(=O)c2cccnc2)c1
2. CC(C)(C)C1=CC2=NC3(CCOCC3)[C@@H]3C[C@@H](O)[C@@H](O)[C@@H]3N2O1
3. O=S(=O)(c1ccccc1)c1nc(N2CCNCC2)cn2ccnc12 [CBK154875T]
4. O=C(CSc1nc2ccccc2[nH]1)Nc1ccccc1
5. O=C(CCCc1ccccc1)Nc1cccnc1N1CCNCC1 [CBK028256T]
6. O=c1[nH]cc(-c2ccc(F)cc2)cc1CNCc1ccccc1F
7. O=C(NCc1ccco1)C1(c2ccccc2)CCCC1

1: 101; 2: 90.1; 3: 94.7; 4: 110; 5: 93.1; 6: 86.1; 7: 96

* * *

assay: in vitro; settings: human, hela cells, % viability
attribute_measured: viability at 28.5 h, 10 µM (%)
Give bare numbers, in %.

Record excerpt, results attached:
| compound | viability at 28.5 h, 10 µM / % |
| --- | --- |
| Cc1nc(CN2CCN(C(=O)C3C4CCCCC43)CC2)cs1 (stereo not drawn) [CBK281607] | 93.8 |
| O=C(O)CCc1ccc(-c2ccccc2)n1CC1CCCO1 (stereo not drawn) [CBK267955] | 102 |
| CC(C)(C)c1cc(C(=O)Nc2ccccn2)n(Cc2ccc(Cl)cc2Cl)n1 [CBK107361] | 89.6 |
| O=[N+]([O-])c1ccc(N2CCN(CCO)CC2)cc1NCc1ccccc1 [CBK042200] | 99.9 |
| COc1ccc2c(c1)C(NC(=O)C1CCCN(C)C1)CC(C)(C)O2 (stereo not drawn) [CBK307631] | 113 |

Your task in this section: give viability at 28.5 h, 10 µM for each listed record.
1. O=S(=O)(NCC1CCCO1)c1cccs1 (stereo not drawn) [CBK044263]
2. COC(=O)c1sc2cc(NC(=S)NCc3ccc(S(N)(=O)=O)cc3)ccc2c1Cl [CBK267094]
3. O=C(Nc1cccc(N2CCNCC2)c1)c1cnccn1 [CBK029470T]
4. O=C(C[C@@H]1CCNC[C@@H]1Cc1cc(-c2ccccc2)on1)N1CCN(c2ccccc2)CC1 [CBK289148]

103
81.7
90.3
83.2

* * *

Would you mind telling me the reported viability at 28.5 h, 10 µM of each entry?
assay: in vitro; conditions: human, hela cells, % viability
Give bare numbers, in %.

| compound | display_unit | viability at 28.5 h, 10 µM |
| --- | --- | --- |
| COc1cc(NC(=O)CSc2ncnc3sc4c(c23)CCCC4)cc(OC)c1 | % | 89.6 |
| CSc1ccc(-c2nc(NC(=O)C(C)C)cc3cccnc23)cc1 | % | 100 |
| CN1CCN(c2ccc(-c3cnc(N)c(NC4CCOCC4)n3)cc2)CC1 | % | 88.8 |

Your task in this section: give viability at 28.5 h, 10 µM for each listed record.
1. O=C(Cc1ccn[nH]1)N1CC(O)CC1c1cc(F)ccc1F (stereo not shown)
2. COC(=O)c1sc2cc(C(F)(F)F)cnc2c1-c1ccccn1
3. O=C(/C=C\c1ccccc1)CC1(O)C(=O)N(Cc2cccc3ccccc23)c2ccccc21 (stereo not shown)
4. Cn1nc(C(C)(C)C)cc1NC(=O)CN1CCc2cncnc2C1
5. Cc1c(C(=O)NCCN2CCC(C)CC2)oc2c1C(O)CC(C)(C)C2 (stereo not shown)
6. NC(=O)c1ccc(-c2cc(Nc3ccc(CCO)cc3)ncn2)cc1

[92.3, 93.2, 96.7, 106, 87.1, 102]

Your task in this section: give viability at 28.5 h, 10 µM for each listed record.
1. O=C(O)CCC(=O)N1CCC(c2nnc3ccccn23)CC1
2. NCCNC(=O)c1ccc(-c2cccc(C(F)(F)F)c2)o1 [CBK115927C]
3. COc1cc(CO)cc(I)c1OCC(=O)Nc1ccccc1
4. CC1CCN(c2ccc([N+](=O)[O-])c(N3CCC(C)CC3)c2)CC1
5. COc1ccc(CN2CCN(Cc3ccc4c(c3)OCO4)CC2)c(OC)c1OC

1. 104
2. 104
3. 112
4. 92.5
5. 91.4

Your task in this section: give viability at 28.5 h, 10 µM for each listed record.
1. CCC(C)NC(=O)C1(Cc2ccc(-c3cc(F)ccc3OC)cc2)CCOCC1 (stereo not shown)
2. O=C(Cc1c[nH]c2ccccc12)N1Cc2ccccc2C1

[102, 103]

Your task in this section: give viability at 28.5 h, 10 µM for each listed record.
1. O=C(NCc1c(O)c(Cl)cc(Cl)c1Cl)c1ccccc1
2. Cc1ccc(S(=O)(=O)Nc2c(C(=O)O)sc3ncccc23)cc1[N+](=O)[O-]
3. Cc1cc(NS(=O)(=O)c2ccc(Nc3nc(-c4cccs4)cs3)cc2)no1

1. 94.2
2. 91.6
3. 101

* * *

assay: in vitro; settings: human, hela cells, % viability
Threshold 90%: viability at 28.5 h, 10 µM strictly smaller gives class 1, otherwise class 0.

These solved cases illustrate the format of a correct answer.
| compound | label |
| --- | --- |
| O=C(O)C1CC1(C(=O)O)C(=O)O (centres unmarked) [CBK261009] | class 0 |
| COC(=O)CCc1ccc(S(=O)(=O)N2CCCN(Cc3cccc(Cl)c3Cl)CC2)cc1 [CBK062988] | class 0 |
| COc1ccc(S(=O)(=O)NCCN2CCOCC2)c(Cl)c1Cl [CBK269999] | class 0 |

Item Cc1cc(C[C@@H]2COC[C@H]2NCc2ccc(C)c(C)c2)on1 [CBK284883] : viability at 28.5 h, 10 µM beneath 90%, strictly?
class 0

Next: Cc1nn(CC(=O)N(C)Cc2cnn(C)c2)c(=O)c2ccccc12 [CBK305701]
class 0

Next: OCCN(CCO)CC1CC2C=CC1C2 (centres unmarked) [CBK261874]
class 0

Next: COCC1(C(=O)N2CCN(c3ccccc3C#N)CC2)CCC1 [CBK304361]
class 0

* * *

Would you mind telling me the reported viability at 28.5 h, 10 µM of each entry?
assay: in vitro; conditions: human, hela cells, % viability
One number for each entry, in %.

| compound | viability at 28.5 h, 10 µM (%) |
| --- | --- |
| CCSc1nnc(NC(=O)c2cnc(SC)nc2CC)s1 | 101 |
| Cc1ccc(S(=O)(=O)Nc2c(C(=O)O)[nH]c3ccccc23)cc1 | 72.6 |
| COc1cccc(NC(=O)CC(CN2CCN(Cc3ccccn3)CC2)C(=O)O)c1 (stereo not shown) | 85.1 |
| CN1CCC(N2CCN(C(=O)NCc3ccc4c(c3)OCO4)CC2)CC1 | 88.3 |
| CCOc1ccc(C(=O)Nc2ccc(Cc3ccncc3)cc2)cc1[N+](=O)[O-] | 114 |
| O=C(CCn1c(C(F)(F)F)cc2cccnc21)N1CCC(O)CC1 | 89.7 |

Your task in this section: give viability at 28.5 h, 10 µM for each listed record.
1. O=C(O)c1cc(NC(=O)C2CCCO2)ccc1O (stereo not shown)
2. CN1CCN(CC(=O)N2N=C(c3c(-c4ccccc4)c4cc(Cl)ccc4[nH]c3=O)CC2c2ccccc2)CC1 (stereo not shown)
3. NCC(=O)Nc1ccc(Cl)c(Cl)c1
4. COc1ccc(-c2nc(NC(=O)CC#N)cnc2-c2ccc(F)cc2)cc1
5. O=C(NCC1c2ccccc2CCN1C(=O)CN1C(=O)c2ccccc2C1=O)C1CCCCC1 (stereo not shown)
6. Cc1ccc(-c2nnc(N3CCN(C(=O)CSc4nc[nH]n4)CC3)c3ccccc23)cc1
7. COc1ccc(C(=O)O)cc1N1C(=O)CC(c2c(C)nn(-c3ccccc3)c2N)C1=O (stereo not shown)

99
88.9
94.3
104
90.6
107
112

Your task in this section: give viability at 28.5 h, 10 µM for each listed record.
1. CCn1c2ccccc2c2cc(CN3CCN(S(=O)(=O)c4ccc(NC(C)=O)cc4)CC3)ccc21
2. O=C(Nc1cc(Cl)ccc1C(=O)O)c1ccc2c(c1)C(=O)N(Cc1cccnc1)C2=O
3. N=C(N)CCCOc1ccccc1-c1ccccc1
4. Cc1ccc(CN(CCCn2ccnc2)Cc2c[nH]cn2)s1
5. O=C(CCc1cccnc1)NC(Cc1ccsc1)c1nccs1 (stereo not shown)
6. Cc1cc(C)nc(Nc2ccc(C3CCCN(S(=O)(=O)c4ccc(F)cc4)C3)nc2)n1 (stereo not shown)

1. 94.1
2. 89.9
3. 100
4. 95.1
5. 99.5
6. 86
